Here the recorded pIC50 is given for each entry.
# Assayed target: SAE (Homo sapiens, UniProt Q9UBT2)
# Construct: endogenous in cells; host or cells: HCT116
# Sequence (Q9UBT2 whole entry): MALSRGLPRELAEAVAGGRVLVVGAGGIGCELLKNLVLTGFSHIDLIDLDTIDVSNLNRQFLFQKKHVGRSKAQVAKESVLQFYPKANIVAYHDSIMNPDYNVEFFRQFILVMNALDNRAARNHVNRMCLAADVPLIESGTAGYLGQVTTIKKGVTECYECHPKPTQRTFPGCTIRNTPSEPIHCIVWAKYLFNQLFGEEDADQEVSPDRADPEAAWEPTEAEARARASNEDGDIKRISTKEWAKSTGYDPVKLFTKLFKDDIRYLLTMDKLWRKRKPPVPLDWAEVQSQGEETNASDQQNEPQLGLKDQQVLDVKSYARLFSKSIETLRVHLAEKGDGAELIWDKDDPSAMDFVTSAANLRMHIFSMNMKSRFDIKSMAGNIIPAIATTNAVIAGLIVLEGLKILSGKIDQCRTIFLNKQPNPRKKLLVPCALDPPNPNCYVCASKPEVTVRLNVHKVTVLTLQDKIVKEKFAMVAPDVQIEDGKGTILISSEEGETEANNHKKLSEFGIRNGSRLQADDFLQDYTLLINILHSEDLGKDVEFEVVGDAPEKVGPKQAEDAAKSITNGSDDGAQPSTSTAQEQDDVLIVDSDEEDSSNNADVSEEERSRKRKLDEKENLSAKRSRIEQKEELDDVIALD
# Sequence (Q9UBE0 whole entry, further chain): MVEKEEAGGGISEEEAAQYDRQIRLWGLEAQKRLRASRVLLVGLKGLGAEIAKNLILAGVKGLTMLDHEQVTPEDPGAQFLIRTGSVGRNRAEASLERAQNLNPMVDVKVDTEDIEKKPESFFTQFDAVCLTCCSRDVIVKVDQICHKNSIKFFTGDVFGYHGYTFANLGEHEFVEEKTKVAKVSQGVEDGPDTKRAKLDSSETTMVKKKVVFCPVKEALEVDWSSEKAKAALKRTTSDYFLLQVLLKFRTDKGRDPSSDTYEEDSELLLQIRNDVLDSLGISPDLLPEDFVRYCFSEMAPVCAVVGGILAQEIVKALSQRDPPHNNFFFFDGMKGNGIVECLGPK
# Assay method text: SUMO IF: in vitro inhibitory activity assay against SAE in HCT116 cells (SUMO-2/3 immunofluorescence)
# Assay type: cell-based
# Test settings: class symbols, 6 h at 37° C.
pIC50: −log10 of the molar value.
Result type: pIC50

[
  {
    "Molecule": "NS(=O)(=O)OC[C@H]1[C@H](F)[C@@H](Nc2ncncc2C(=O)c2cc3c(s2)COCC32NCCc3ccc(Cl)c(F)c32)C[C@@H]1O (some centres unmarked)",
    "Assayed target": "SAE (Homo sapiens, UniProt Q9UBT2)",
    "Result": "6.70 to 7.30"
  },
  {
    "Molecule": "NS(=O)(=O)OC[C@H]1[C@H](F)[C@@H](Nc2ncncc2C(=O)c2cc3c(s2)CCCC32NCCc3cc(Cl)c(F)cc32)C[C@@H]1O (some centres unmarked)",
    "Assayed target": "SAE (Homo sapiens, UniProt Q9UBT2)",
    "Result": "6.70 to 7.30"
  },
  {
    "Molecule": "CN1Cc2sc(C(=O)c3cncnc3N[C@H]3C[C@H](O)[C@@H](COS(N)(=O)=O)[C@@H]3F)cc2C2(C1)OCCc1ccc(Cl)cc12 (some centres unmarked)",
    "Assayed target": "SAE (Homo sapiens, UniProt Q9UBT2)",
    "Result": "≥ 7.30"
  },
  {
    "Molecule": "Cc1sc(C(=O)c2cncnc2N[C@H]2C[C@H](O)[C@@H](COS(N)(=O)=O)[C@@H]2F)cc1C1NCCc2cc(Cl)ncc21 (some centres unmarked)",
    "Assayed target": "SAE (Homo sapiens, UniProt Q9UBT2)",
    "Result": "6.70 to 7.30"
  },
  {
    "Molecule": "Cc1sc(C(=O)c2cncnc2N[C@H]2C[C@H](O)[C@@H](COS(N)(=O)=O)[C@@H]2F)cc1C1NCCc2ccc(F)cc21 (some centres unmarked)",
    "Assayed target": "SAE (Homo sapiens, UniProt Q9UBT2)",
    "Result": "< 6.70"
  },
  {
    "Molecule": "NS(=O)(=O)OC[C@H]1[C@H](F)[C@@H](Nc2ncncc2C(=O)c2cc3c(s2)C=CCC32NCCc3ccc(Cl)cc32)C[C@@H]1O (some centres unmarked)",
    "Assayed target": "SAE (Homo sapiens, UniProt Q9UBT2)",
    "Result": "≥ 7.30"
  },
  {
    "Molecule": "N#Cc1cc2c(cc1Cl)[C@@]1(CCCc3sc(C(=O)c4cncnc4N[C@H]4C[C@H](O)[C@@H](COS(N)(=O)=O)[C@@H]4F)cc31)NCC2",
    "Assayed target": "SAE (Homo sapiens, UniProt Q9UBT2)",
    "Result": "≥ 7.30"
  },
  {
    "Molecule": "CCN1Cc2sc(C(=O)c3cncnc3N[C@H]3C[C@H](O)[C@@H](COS(N)(=O)=O)[C@@H]3F)cc2C2(C1)OCCc1ccc(F)cc12 (some centres unmarked)",
    "Assayed target": "SAE (Homo sapiens, UniProt Q9UBT2)",
    "Result": "6.70 to 7.30"
  },
  {
    "Molecule": "CC1(C)CN[C@]2(C=Cc3sc(C(=O)c4cncnc4N[C@H]4C[C@H](O)[C@@H](COS(N)(=O)=O)[C@@H]4F)cc32)c2cc(Cl)ccc21",
    "Assayed target": "SAE (Homo sapiens, UniProt Q9UBT2)",
    "Result": "6.70 to 7.30"
  },
  {
    "Molecule": "NS(=O)(=O)OC[C@H]1[C@H](F)[C@@H](Nc2ncncc2C(=O)c2cc3c(s2)CCC[C@]32NCCc3cc(Cl)c(F)cc32)C[C@@H]1O",
    "Assayed target": "SAE (Homo sapiens, UniProt Q9UBT2)",
    "Result": "≥ 7.30"
  },
  {
    "Molecule": "CC1=C[C@]2(NCCc3ccc(F)cc32)c2cc(C(=O)c3cncnc3N[C@H]3C[C@H](O)[C@@H](COS(N)(=O)=O)[C@@H]3F)sc21",
    "Assayed target": "SAE (Homo sapiens, UniProt Q9UBT2)",
    "Result": "6.70 to 7.30"
  },
  {
    "Molecule": "[2H]C1(c2cc(C(=O)c3cncnc3N[C@H]3C[C@H](O)[C@@H](COS(N)(=O)=O)[C@@H]3F)sc2C)NCCc2ccc(Cl)cc21 (some centres unmarked)",
    "Assayed target": "SAE (Homo sapiens, UniProt Q9UBT2)",
    "Result": "6.70 to 7.30"
  },
  {
    "Molecule": "COc1ccc2c(c1)C1(CCCc3sc(C(=O)c4cncnc4N[C@H]4C[C@H](O)[C@@H](COS(N)(=O)=O)[C@@H]4F)cc31)NCC2 (some centres unmarked)",
    "Assayed target": "SAE (Homo sapiens, UniProt Q9UBT2)",
    "Result": "< 6.70"
  },
  {
    "Molecule": "CN(C)c1sc(C(=O)c2cncnc2N[C@H]2C[C@H](O)[C@@H](COS(N)(=O)=O)[C@@H]2F)cc1C1NCCc2ccc(Cl)cc21 (some centres unmarked)",
    "Assayed target": "SAE (Homo sapiens, UniProt Q9UBT2)",
    "Result": "6.70 to 7.30"
  },
  {
    "Molecule": "CCN1Cc2sc(C(=O)c3cncnc3N[C@H]3C[C@H](O)[C@@H](COS(N)(=O)=O)[C@@H]3F)cc2[C@@]2(C1)OCCc1ccc(Cl)cc12",
    "Assayed target": "SAE (Homo sapiens, UniProt Q9UBT2)",
    "Result": "< 6.70"
  },
  {
    "Molecule": "N#Cc1ccc2c(c1)[C@]1(CCCc3sc(C(=O)c4cncnc4N[C@H]4C[C@H](O)[C@@H](COS(N)(=O)=O)[C@@H]4F)cc31)NCC2",
    "Assayed target": "SAE (Homo sapiens, UniProt Q9UBT2)",
    "Result": "< 6.70"
  },
  {
    "Molecule": "CCN1Cc2sc(C(=O)c3cncnc3N[C@H]3C[C@H](O)[C@@H](COS(N)(=O)=O)[C@@H]3F)cc2[C@]2(C1)OCCc1ccc(F)cc12",
    "Assayed target": "SAE (Homo sapiens, UniProt Q9UBT2)",
    "Result": "≥ 7.30"
  },
  {
    "Molecule": "NS(=O)(=O)OC[C@H]1[C@H](F)[C@@H](Nc2ncncc2C(=O)c2nc3c(s2)CCC[C@]32NCCc3ccc(Cl)cc32)C[C@@H]1O",
    "Assayed target": "SAE (Homo sapiens, UniProt Q9UBT2)",
    "Result": "6.70 to 7.30"
  },
  {
    "Molecule": "NS(=O)(=O)OC[C@H]1[C@H](F)[C@@H](Nc2ncncc2C(=O)c2cc3c(s2)COC[C@@]32NCCc3cc(F)c(Cl)cc32)C[C@@H]1O",
    "Assayed target": "SAE (Homo sapiens, UniProt Q9UBT2)",
    "Result": "< 6.70"
  },
  {
    "Molecule": "Cc1sc(C(=O)c2cncnc2N[C@H]2C[C@H](O)[C@@H](COS(N)(=O)=O)[C@@H]2F)cc1C1NCCc2cc(F)c(F)cc21 (some centres unmarked)",
    "Assayed target": "SAE (Homo sapiens, UniProt Q9UBT2)",
    "Result": "6.70 to 7.30"
  },
  {
    "Molecule": "NS(=O)(=O)OC[C@H]1[C@H](F)[C@@H](Nc2ncncc2C(=O)c2cc3c(s2)COC[C@@]32NCCc3ccccc32)C[C@@H]1O",
    "Assayed target": "SAE (Homo sapiens, UniProt Q9UBT2)",
    "Result": "< 6.70"
  },
  {
    "Molecule": "CC1CN[C@]2(CCCc3sc(C(=O)c4cncnc4N[C@H]4C[C@H](O)[C@@H](COS(N)(=O)=O)[C@@H]4F)cc32)c2cc(Cl)ccc21 (some centres unmarked)",
    "Assayed target": "SAE (Homo sapiens, UniProt Q9UBT2)",
    "Result": "≥ 7.30"
  },
  {
    "Molecule": "NS(=O)(=O)CC[C@H]1[C@H](F)[C@@H](Nc2ncncc2C(=O)c2cc3c(s2)CCCC32NCCc3ccc(Cl)cc32)C[C@@H]1O (some centres unmarked)",
    "Assayed target": "SAE (Homo sapiens, UniProt Q9UBT2)",
    "Result": "< 6.70"
  }
]

Data origin, for the record: patent US20260297109A1
